Biological target: STING (Homo sapiens, UniProt Q86WV6, G230A/H232R/R293Q/R71H)
Sequence (Q86WV6 whole entry R71H/G230A/H232R/R293Q): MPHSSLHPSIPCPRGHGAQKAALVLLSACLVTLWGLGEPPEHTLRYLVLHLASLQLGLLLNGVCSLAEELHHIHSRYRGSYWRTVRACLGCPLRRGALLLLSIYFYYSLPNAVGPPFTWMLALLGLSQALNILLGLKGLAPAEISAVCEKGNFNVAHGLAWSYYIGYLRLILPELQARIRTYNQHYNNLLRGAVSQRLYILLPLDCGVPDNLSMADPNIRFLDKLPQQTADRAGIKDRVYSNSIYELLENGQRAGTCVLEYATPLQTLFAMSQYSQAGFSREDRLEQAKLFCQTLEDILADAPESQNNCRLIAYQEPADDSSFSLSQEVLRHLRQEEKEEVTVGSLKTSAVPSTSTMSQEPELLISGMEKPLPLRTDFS
Experiment: STING reporter assay in THP1-Dual KO-IFNAR2 cells (2′3′cGAMP stimulation, luciferase reporter)
Conditions: 15 μM 2′3′cGAMP stimulation, 24 h, read-out: Pharmaron, THP1_IFNAR2 STING 24 h Luci Normalized: GeoMean EC50
pEC50: −log10 of the molar value.
So I've got a bunch of compounds here, and I need their pEC50 values.

Short answer please: pEC50, STING (Homo sapiens, UniProt Q86WV6, G230A/H232R/R293Q/R71H), entry `CC1(C(=O)Nc2c[nH]c3ccc(OC[C@@H]4C[C@@H]5CN(CC(F)(F)F)C[C@@H]5C4)cc23)COC1`
6.70 to 7.40

Short answer please: pEC50, STING (Homo sapiens, UniProt Q86WV6, G230A/H232R/R293Q/R71H), entry `CC(=O)Nc1c[nH]c2ccc(CCOc3cnc4c(OC(F)(F)F)cccc4c3)cc12`
5.30 to 6.00

Short answer please: pEC50, STING (Homo sapiens, UniProt Q86WV6, G230A/H232R/R293Q/R71H), entry `CC1(C(=O)Nc2c[nH]c3ccc(OC[C@H]4C[C@@H]5CN(CC(F)(F)F)C[C@@H]5C4)cc23)COC1`
6.00 to 6.70

Short answer please: pEC50, STING (Homo sapiens, UniProt Q86WV6, G230A/H232R/R293Q/R71H), entry `CC(=O)Nc1c[nH]c2ccc(CCOc3cc(Cl)cc(C#N)c3)cc12`
5.30 to 6.00

Short answer please: pEC50, STING (Homo sapiens, UniProt Q86WV6, G230A/H232R/R293Q/R71H), entry CC(=O)Nc1c[nH]c2ccc(OCC[C@H]3CC[C@H](C(F)(F)F)CC3)cc12 (single isomer, unassigned)
6.00 to 6.70

Short answer please: pEC50, STING (Homo sapiens, UniProt Q86WV6, G230A/H232R/R293Q/R71H), entry `CC(=O)N[C@H]1C[C@](C)(C(=O)Nc2c[nH]c3ccc(O[C@H]4C[C@@H](c5ccc(C(F)(F)F)cc5)C4)cc23)C1`
5.30 to 6.00

Short answer please: pEC50, STING (Homo sapiens, UniProt Q86WV6, G230A/H232R/R293Q/R71H), entry `CC(=O)Nc1c[nH]c2ccc(COCc3cccc(C(F)(F)F)c3)cc12`
6.00 to 6.70

---

So I've got a bunch of compounds here, and I need their pEC50 values.
Biological target: STING (Homo sapiens, UniProt Q86WV6, G230A/H232R/R293Q/R71H)
Experiment: STING reporter assay in THP1-Dual KO-IFNAR2 cells (2′3′cGAMP stimulation, luciferase reporter)
Settings: 15 μM 2′3′cGAMP stimulation, 24 h, read-out: Pharmaron, THP1_IFNAR2 STING 24 h Luci Normalized: GeoMean EC50
Experimental: STING pathway activation by the compounds described herein was measured using THP1-Dual™ cells (KO-IFNAR2). […] 2 mL of solution A and 2 ml Solution B was mixed and incubated for 20 min at room temperature (RT). […] Luciferase reporter activity was then measured. EC50 values were calculated by using standard methods known in the art. […] Luciferase reporter activity was then measured. EC50 values were calculated by using standard methods known in the art.
pEC50: −log10 of the molar value.

Short answer please: pEC50, STING (Homo sapiens, UniProt Q86WV6, G230A/H232R/R293Q/R71H), entry `CC(=O)Nc1c[nH]c2ccc(CCOc3ccc4ccncc4c3)cc12`
5.30 to 6.00

Short answer please: pEC50, STING (Homo sapiens, UniProt Q86WV6, G230A/H232R/R293Q/R71H), entry `CC(=O)Nc1c[nH]c2ccc(CCOc3ccc(C(F)(F)F)cc3)c(F)c12`
6.00 to 6.70

Short answer please: pEC50, STING (Homo sapiens, UniProt Q86WV6, G230A/H232R/R293Q/R71H), entry `COCC(=O)Nc1c[nH]c2ccc(OCCC3CCN(CC(F)(F)F)CC3)cc12`
6.00 to 6.70

Short answer please: pEC50, STING (Homo sapiens, UniProt Q86WV6, G230A/H232R/R293Q/R71H), entry CC(=O)Nc1c[nH]c2ccc(CC(C)Oc3ccc(C(F)(F)F)cc3)cc12 (centres unmarked)
5.30 to 6.00

Short answer please: pEC50, STING (Homo sapiens, UniProt Q86WV6, G230A/H232R/R293Q/R71H), entry `COCCOCC(=O)Nc1c[nH]c2ccc(OCC[C@@H]3C[C@@H]4CN(CC(F)(F)F)C[C@@H]4C3)cc12`
6.70 to 7.40

Short answer please: pEC50, STING (Homo sapiens, UniProt Q86WV6, G230A/H232R/R293Q/R71H), entry `CC(=O)Nc1c[nH]c2ccc(CCNc3ccc(C(F)(F)F)nc3)cc12`
5.30 to 6.00

Short answer please: pEC50, STING (Homo sapiens, UniProt Q86WV6, G230A/H232R/R293Q/R71H), entry `N#CC1(C(=O)Nc2c[nH]c3ccc(O[C@H]4C[C@@H](c5ccc(C(F)(F)F)cc5)C4)cc23)CC1`
6.00 to 6.70

Short answer please: pEC50, STING (Homo sapiens, UniProt Q86WV6, G230A/H232R/R293Q/R71H), entry `CC(=O)Nc1c[nH]c2ccc(OC3CN(c4ccc(C(F)(F)F)cc4)C3)cc12`
6.70 to 7.40

---

Biological target: STING (Homo sapiens, UniProt Q86WV6, G230A/H232R/R293Q/R71H)
Experiment: STING reporter assay in THP1-Dual KO-IFNAR2 cells (2′3′cGAMP stimulation, luciferase reporter)
Conditions: 15 μM 2′3′cGAMP stimulation, 24 h, read-out: Pharmaron, THP1_IFNAR2 STING 24 h Luci Normalized: GeoMean EC50
pEC50: −log10 of the molar value.
valueKind: pEC50

Would you mind telling me what pEC50 value was observed for `CC(=O)Nc1c[nH]c2cc(F)c(CCOc3ccc(C(F)(F)F)cc3)c(F)c12` ?
5.30 to 6.00

Would you mind telling me what pEC50 value was observed for `O=C(Nc1c[nH]c2ccc(OCc3ccc(C(F)(F)F)cc3)cc12)C1CC(F)(F)C1` ?
6.00 to 6.70

Would you mind telling me what pEC50 value was observed for `COCCc1ccc(OCCc2ccc3[nH]cc(NC(C)=O)c3c2)cc1` ?
6.00 to 6.70

Would you mind telling me what pEC50 value was observed for O=C(Nc1c[nH]c2ccc(OCc3ccc(C(F)(F)F)cc3)cc12)C1CC(O)C1 (centres unmarked) ?
6.00 to 6.70

Would you mind telling me what pEC50 value was observed for `CC(=O)Nc1c[nH]c2ccc(OCC[C@H]3CC[C@](O)(C(F)(F)F)CC3)cc12` ?
5.30 to 6.00

Would you mind telling me what pEC50 value was observed for `CC1(C(=O)Nc2c[nH]c3ccc(OCCc4ccc(C(F)(F)F)cc4)cc23)CN(CC(F)F)C1` ?
6.70 to 7.40

Would you mind telling me what pEC50 value was observed for `CC1(C(=O)Nc2c[nH]c3ccc(O[C@H]4C[C@@H](c5ccc(C(F)(F)F)cc5)C4)cc23)CCOCC1` ?
6.00 to 6.70

Would you mind telling me what pEC50 value was observed for `O=C(Nc1c[nH]c2ccc(OCc3ccc(C(F)(F)F)cc3)cc12)C1COC1` ?
6.00 to 6.70

---

Target: STING (Homo sapiens, UniProt Q86WV6, G230A/H232R/R293Q/R71H)
Assay: STING reporter assay in THP1-Dual KO-IFNAR2 cells (2′3′cGAMP stimulation, luciferase reporter)
Details: 15 μM 2′3′cGAMP stimulation, 24 h, read-out: Pharmaron, THP1_IFNAR2 STING 24 h Luci Normalized: GeoMean EC50
pEC50: −log10 of the molar value.
So I've got a bunch of compounds here, and I need their pEC50 values.

Would you mind telling me what pEC50 value was observed for CC(=O)Nc1c[nH]c2ccc(CC3(c4ccc(C(F)(F)F)cc4)CCOC3)cc12 (stereo not drawn) [Compound 507] ?
4.00 to 5.30

Would you mind telling me what pEC50 value was observed for CC1(C)CC1C(=O)Nc1c[nH]c2ccc(O[C@H]3C[C@H](c4ccc(C(F)(F)F)cc4)C3)cc12 (stereo partly drawn) [Compound 563] ?
6.70 to 7.40

Would you mind telling me what pEC50 value was observed for COCCCC(=O)Nc1c[nH]c2ccc(OCCC3CCN(CC(F)(F)F)CC3)cc12 [Compound 121] ?
6.00 to 6.70

Would you mind telling me what pEC50 value was observed for O=C(Nc1c[nH]c2ccc(OCc3ccc(C(F)(F)F)cc3)cc12)C1(F)CC1 [Compound 331] ?
5.30 to 6.00

Would you mind telling me what pEC50 value was observed for O=C(Nc1c[nH]c2ccc(OCC[C@@H]3C[C@@H]4CN(CC(F)(F)F)C[C@@H]4C3)cc12)C1CC1(F)Cl (stereo partly drawn) [Compound 577] ?
6.00 to 6.70

Would you mind telling me what pEC50 value was observed for CC(=O)Nc1c[nH]c2ccc(C#Cc3ccc(C(F)(F)F)cc3)cc12 [Compound 495] ?
5.30 to 6.00

Would you mind telling me what pEC50 value was observed for C[C@H]1C[C@@H](C(=O)Nc2c[nH]c3ccc(OCCc4ccc(C(F)(F)F)cc4)cc23)C1 [Compound 162] ?
6.70 to 7.40

Would you mind telling me what pEC50 value was observed for O=C(Nc1c[nH]c2ccc(OCCc3ccc(C(F)(F)F)cc3)cc12)C1(C(F)(F)F)CC1 [Compound 185] ?
6.00 to 6.70

Would you mind telling me what pEC50 value was observed for COC1CC(C(=O)Nc2c[nH]c3ccc(O[C@H]4C[C@@H](c5ccc(C(F)(F)F)cc5)C4)cc23)C1 (stereo partly drawn) [Compound 159] ?
6.70 to 7.40

Would you mind telling me what pEC50 value was observed for CC(=O)Nc1c[nH]c2ccc(CCOc3ccc(C(F)(F)F)cn3)cc12 [Compound 215] ?
6.00 to 6.70

Would you mind telling me what pEC50 value was observed for O=C(Nc1c[nH]c2ccc(O[C@H]3C[C@H](c4ccc(C(F)(F)F)nc4)C3)cc12)[C@H]1C[C@H](CO)C1 [Compound 553] ?
6.00 to 6.70

Would you mind telling me what pEC50 value was observed for O=C(Nc1c[nH]c2ccc(CCOc3ccc(C(F)(F)F)cc3)cc12)C1(C(F)(F)F)CC1 [Compound 387] ?
6.00 to 6.70

Would you mind telling me what pEC50 value was observed for CC1(C(=O)Nc2c[nH]c3ccc(OCCc4ccc(C(F)(F)F)cc4)cc23)CCOC1 (stereo not drawn) [Compound 189] ?
6.00 to 6.70

Would you mind telling me what pEC50 value was observed for C[C@H]1C[C@@H](C(=O)Nc2c[nH]c3ccc(O[C@H]4C[C@@H](c5ccc(C(F)(F)F)cc5)C4)cc23)C1 [Compound 335] ?
6.00 to 6.70

Would you mind telling me what pEC50 value was observed for CC(=O)Nc1c[nH]c2ccc(CCO[C@@H]3C[C@@H]4CN(CC(F)(F)F)C[C@@H]4C3)cc12 [Compound 293] ?
4.00 to 5.30
